# test-protocol: aqueous solubility in 0.1 M sodium phosphate buffer (pH 7.4)
# Assay type: physicochemical
# From the text: […]
Consider the following compounds and their measured aqueous solubility readings.
Report the figure in µg/mL without appending any unit label.

Worked cases, answers included:
- compound: "Cc1cc(C)nc(/C=C/c2n[nH]c3cc(Nc4ccccc4C(=O)NCC#CCO)ccc23)c1 [Form II]"
  aqueous solubility, µg/mL: 1.3
- compound: "Cc1cc(C)nc(/C=C/c2n[nH]c3cc(Nc4ccccc4C(=O)NCC#CCO)ccc23)c1 [Form Ia]"
  aqueous solubility, µg/mL: 0.8
- compound: "Cc1cc(C)nc(/C=C/c2n[nH]c3cc(Nc4ccccc4C(=O)NCC#CCO)ccc23)c1 [Form IV]"
  aqueous solubility, µg/mL: 1.3

# next compound below
What does the record list as aqueous solubility for Cc1cc(C)nc(/C=C/c2n[nH]c3cc(Nc4ccccc4C(=O)NCC#CCO)ccc23)c1 [Form III] ? 3.2
